Experiment: Aqueous solubility
Format: physicochemical
Conditions: deionised water, 37 °C, pH 5.9, water, thermodynamic from solid, pH 5.90, 24 hours agitation, read-out: Highest solubility value at 37° C.
Procedure: Known amounts of the compounds were suspended by agitation for 24 hours. The filtrates were isolated and content of the appropriate compounds was determined by HPLC analysis.
ASSAY READOUT: solubility at 24 h (µg/mL)
// note: answer is a bare numeric in µg/mL

Specify reported solubility at 24 h for the molecule shown: CNC(=O)C(=O)NCCCC/C=C\CCCCCCCOCC(=O)O [Comp-02]
75

====

assay: Aqueous solubility; format: physicochemical; settings: deionised water, 37 °C, pH 5.9, water, thermodynamic from solid, pH 5.90, 24 hours agitation, read-out: Average solubility at 37° C.
ASSAY READOUT: solubility at 24 h (µg/mL)
Write the number in µg/mL without appending the unit.

Look up and report measured solubility at 24 h for this entry: "CNC(=O)C(=O)NCCCC/C=C\CCCCCCCOCC(=O)O"
68
